target: PI3K-α kinase (p110α/p85α) (Homo sapiens, UniProt P42336); construct: purchased Invitrogen PV4788; test: Determination of PI3K kinase activity (ADP Transcreener, fluorescence polarization); assay type: biochemical; settings: Table 2; ATP 10 μM; read-out: PI3K-α/nM (IC50 of inhibitory activity against PI3K-α kinase)
Sequence (P42336 whole entry): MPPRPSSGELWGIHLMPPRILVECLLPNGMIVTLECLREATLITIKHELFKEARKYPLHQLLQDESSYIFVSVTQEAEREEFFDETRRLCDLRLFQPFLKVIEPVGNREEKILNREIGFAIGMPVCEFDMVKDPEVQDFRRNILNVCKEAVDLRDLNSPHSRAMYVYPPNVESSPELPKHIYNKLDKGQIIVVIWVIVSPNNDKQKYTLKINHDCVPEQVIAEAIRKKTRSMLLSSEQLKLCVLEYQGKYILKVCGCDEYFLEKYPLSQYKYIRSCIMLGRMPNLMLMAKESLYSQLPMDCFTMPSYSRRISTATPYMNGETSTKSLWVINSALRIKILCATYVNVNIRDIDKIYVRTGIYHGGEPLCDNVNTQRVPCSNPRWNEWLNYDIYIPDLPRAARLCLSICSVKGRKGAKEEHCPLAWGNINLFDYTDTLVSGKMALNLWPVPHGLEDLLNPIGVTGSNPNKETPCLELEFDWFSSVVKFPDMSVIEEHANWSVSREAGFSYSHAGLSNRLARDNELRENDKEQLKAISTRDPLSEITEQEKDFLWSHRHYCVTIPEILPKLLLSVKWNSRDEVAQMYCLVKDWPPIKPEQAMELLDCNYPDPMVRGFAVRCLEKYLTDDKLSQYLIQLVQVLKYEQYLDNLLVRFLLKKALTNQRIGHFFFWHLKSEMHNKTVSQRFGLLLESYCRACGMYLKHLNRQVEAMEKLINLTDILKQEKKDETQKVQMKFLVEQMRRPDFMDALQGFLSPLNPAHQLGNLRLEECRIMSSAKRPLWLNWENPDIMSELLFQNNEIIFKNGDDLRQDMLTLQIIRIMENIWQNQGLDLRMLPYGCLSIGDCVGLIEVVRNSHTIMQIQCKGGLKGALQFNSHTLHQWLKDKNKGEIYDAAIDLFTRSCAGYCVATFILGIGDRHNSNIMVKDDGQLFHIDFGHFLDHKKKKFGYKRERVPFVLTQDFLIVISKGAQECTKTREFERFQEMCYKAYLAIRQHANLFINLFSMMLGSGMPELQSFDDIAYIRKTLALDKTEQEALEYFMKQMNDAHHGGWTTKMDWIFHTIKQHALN
Sequence (P27986 whole entry partner): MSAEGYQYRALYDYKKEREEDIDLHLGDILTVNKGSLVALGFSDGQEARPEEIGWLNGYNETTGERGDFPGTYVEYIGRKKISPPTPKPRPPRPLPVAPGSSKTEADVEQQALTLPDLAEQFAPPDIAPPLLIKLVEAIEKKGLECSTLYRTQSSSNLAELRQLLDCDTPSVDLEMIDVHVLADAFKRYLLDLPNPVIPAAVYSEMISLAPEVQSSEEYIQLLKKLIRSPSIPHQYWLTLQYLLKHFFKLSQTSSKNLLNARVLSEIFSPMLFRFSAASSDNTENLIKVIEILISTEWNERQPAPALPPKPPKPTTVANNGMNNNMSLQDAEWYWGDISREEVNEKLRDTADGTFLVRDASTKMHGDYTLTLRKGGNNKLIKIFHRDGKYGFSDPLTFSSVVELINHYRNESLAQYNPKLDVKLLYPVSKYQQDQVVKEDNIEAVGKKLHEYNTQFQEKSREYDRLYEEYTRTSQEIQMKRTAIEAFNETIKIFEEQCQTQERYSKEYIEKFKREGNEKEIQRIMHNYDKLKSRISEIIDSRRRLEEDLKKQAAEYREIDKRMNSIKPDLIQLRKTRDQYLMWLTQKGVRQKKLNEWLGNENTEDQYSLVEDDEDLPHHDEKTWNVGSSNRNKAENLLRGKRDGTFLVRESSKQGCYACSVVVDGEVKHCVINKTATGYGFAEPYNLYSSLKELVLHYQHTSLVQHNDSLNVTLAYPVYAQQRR
Returns: string. Value is Y if measured IC50 is below 40 nM, and N if it is greater than or equal to it.

For orientation, consider the following solved cases.
                                   compound  category
0  Nc1cc(C(F)(F)F)c(-c2cc(C3(C(=O)N4CCOCC4)CC3)nc(N3CCOCC3)n2)cn1 [Compound S-3]         N
1  C[C@@H]1COCCN1c1nc(-c2cnc(N)cc2Cl)cc(C(C)(C)S(C)(=O)=O)n1 [Compound S-67]         Y

Q) Is the reported IC50 for CC(C)(c1cc(-c2cnc(N)cc2C(F)(F)F)nc(N2CCOCC2)n1)S(=O)(=O)c1cccc(F)c1 [Compound S-60] strictly below 40 nM?
A) Y

Q) For this compound, is IC50 lower than 40 nM? CCOC(=O)C1(c2cc(-c3cnc(N)cc3C(F)(F)F)nc(N3CCOCC3)n2)CC1 [Compound S-2]
A) N

Q) # TODO verify IC50 < 40 nM strictly for this compound: CC(C)(c1cc(-c2cnc(N)cc2C(F)(F)F)nc(N2CCOCC2)n1)S(=O)(=O)c1ccccc1Cl [Compound S-80]
A) Y

Q) Check if IC50 falls below 40 nM for CC(C)S(=O)(=O)C1(c2cc(-c3cnc(N)cc3F)nc(N3CCOCC3)n2)CC1 [Compound S-86] .
A) Y

----------
target: PI3K-α kinase (p110α/p85α) (Homo sapiens, UniProt P42336); construct: purchased Invitrogen PV4788; assay: Determination of PI3K kinase activity (ADP Transcreener, fluorescence polarization); type: biochemical; settings: Table 1; ATP 10 μM; read-out: PI3K-α/nM (IC50 of inhibitory activity against PI3K kinase)
List of IC50 values.

Completed entries (count: 3):
>>> print(df.to_string())
                                        mol  result
0  CS(=O)(=O)C(F)(F)c1cc(-c2cnc(N)cc2Cl)nc(N2CCOCC2)n1   12 nM
1  C[C@@H]1COCCN1c1nc(-c2cnc(N)cc2Cl)cc(C2(S(C)(=O)=O)CC2)n1    8 nM
2  C[C@H]1COCCN1c1nc(-c2cnc(N)cc2F)cc(C2(S(C)(=O)=O)CC2)n1   20 nM

Please examine the following record next.
Q) Look up IC50: C[C@H]1COCCN1c1nc(-c2cnc(N)cc2F)cc(C(C)(C)S(C)(=O)=O)n1
A) 21 nM

----------
IC50 values by entry
target: PI3K-δ kinase (p110δ/p85α) (Homo sapiens); construct: purchased Millipore 14-604M; assay: Determination of PI3K kinase activity (ADP Transcreener, fluorescence polarization); type: biochemical; conditions: Table 1; ATP 10 μM; read-out: PI3K-δ/nM (IC50 of inhibitory activity against PI3K kinase)
Sequence (O00329 whole entry, one chain of several): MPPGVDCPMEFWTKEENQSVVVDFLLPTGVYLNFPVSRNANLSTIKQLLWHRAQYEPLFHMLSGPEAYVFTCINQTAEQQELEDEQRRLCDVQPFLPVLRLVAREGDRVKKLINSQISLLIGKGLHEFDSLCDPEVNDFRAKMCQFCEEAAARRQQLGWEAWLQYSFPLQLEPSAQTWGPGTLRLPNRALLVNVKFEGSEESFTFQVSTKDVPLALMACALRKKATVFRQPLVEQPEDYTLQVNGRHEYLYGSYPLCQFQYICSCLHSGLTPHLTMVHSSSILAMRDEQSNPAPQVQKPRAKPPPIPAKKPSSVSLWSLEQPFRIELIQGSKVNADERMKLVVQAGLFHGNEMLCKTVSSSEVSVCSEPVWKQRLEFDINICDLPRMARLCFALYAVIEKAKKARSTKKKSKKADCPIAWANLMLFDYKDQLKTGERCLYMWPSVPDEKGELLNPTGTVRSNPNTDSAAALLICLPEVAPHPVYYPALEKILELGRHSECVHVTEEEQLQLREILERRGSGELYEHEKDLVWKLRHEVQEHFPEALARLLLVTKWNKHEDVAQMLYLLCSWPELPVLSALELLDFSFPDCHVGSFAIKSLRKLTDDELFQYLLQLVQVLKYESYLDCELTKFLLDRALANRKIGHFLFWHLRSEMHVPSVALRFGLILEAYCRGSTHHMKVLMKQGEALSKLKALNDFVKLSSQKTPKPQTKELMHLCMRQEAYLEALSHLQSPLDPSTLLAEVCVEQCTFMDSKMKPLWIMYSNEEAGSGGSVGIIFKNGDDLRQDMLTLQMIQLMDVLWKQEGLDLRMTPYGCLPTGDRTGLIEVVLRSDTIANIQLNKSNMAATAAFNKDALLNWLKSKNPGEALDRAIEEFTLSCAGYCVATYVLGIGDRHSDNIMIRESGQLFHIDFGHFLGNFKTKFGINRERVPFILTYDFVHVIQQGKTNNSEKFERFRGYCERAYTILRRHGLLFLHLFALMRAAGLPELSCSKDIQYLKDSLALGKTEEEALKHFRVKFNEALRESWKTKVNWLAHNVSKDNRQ
Note: unit nM is implicit; provide only the numeric part.

>>> print(df.to_string())
                                        mol  experimentalreadout  uom  quantitativeresult
0  CS(=O)(=O)C(F)(F)c1cc(-c2cnc(N)cc2Cl)nc(N2CCOCC2)n1                 IC50   nM                 145

Q) IC50 for C[C@H]1COCCN1c1nc(-c2cnc(N)cc2Cl)cc(C2(S(C)(=O)=O)CCC2)n1 ?
A) 103

Q) Record request: IC50 value, item C[C@H]1COCCN1c1nc(-c2cnc(N)cc2Cl)cc(C(C)(C)O)n1
A) 514

Q) Given the entry CC(C)S(=O)(=O)C1(c2cc(-c3cnc(N)cc3C(F)(F)F)nc(N3CCOCC3)n2)CC1 , report its measured IC50.
A) 246

Cited source for all entries: patent US10227324B2
